- System: MDA-MB-453
- Experiment description: normalised response (% of control), CellTiter-Glo; higher = more viable cells (100 = DMSO, 0 = benzethonium chloride kill control)
- Protocol conditions: incubation time: 72 h
Reported metric: normalised response (%)
Give the quantity in %, number only.

The following molecules have reported results that may help.
- Molecule: "Nc1ccn([C@@H]2O[C@H](CO)[C@@H](O)[C@@H]2O)c(=O)n1 [Cytarabine] (1000 nM)"
  Reported metric: "normalised response"
  Numeric value: 105
- Molecule: "CN1CCC(COc2cnc(-c3cccc(Cn4nc(-c5cccc(C#N)c5)ccc4=O)c3)nc2)CC1 (1 nM)"
  Reported metric: "normalised response"
  Numeric value: 91.3
- Molecule: "CN1CC[C@H](c2c(O)cc(O)c3c(=O)cc(-c4ccccc4Cl)oc23)[C@H](O)C1 [Alvocidib] (1000 nM)"
  Reported metric: "normalised response"
  Numeric value: 28
- Molecule: "O=C(c1ccc(C(=O)N2CCC(N3CCCC3)CC2)c(Nc2ccccc2)c1)N1CCC(N2CCCC2)CC1 [UNC1215] (3 nM)"
  Reported metric: "normalised response"
  Numeric value: 102
- Molecule: "Cc1c2oc3c(C)ccc(C(=O)N[C@@H]4C(=O)N[C@H](C(C)C)C(=O)N5CCC[C@H]5C(=O)N(C)CC(=O)N(C)[C@@H](C(C)C)C(=O)O[C@@H]4C)c3nc-2c(C(=O)N[C@@H]2C(=O)N[C@H](C(C)C)C(=O)N3CCC[C@H]3C(=O)N(C)CC(=O)N(C)[C@@H](C(C)C)C(=O)O[C@@H]2C)c(N)c1=O [Dactinomycin] (100 nM)"
  Reported metric: "normalised response"
  Numeric value: 6.8

Recorded normalised response for Clc1ccc(C(c2ccccc2Cl)C(Cl)Cl)cc1 (centres undefined) [Mitotane] (1 nM) with MDA-MB-453, please?
96

Also C=CCNC1=C2C[C@@H](C)C[C@H](OC)[C@H](O)[C@@H](C)/C=C(\C)[C@H](OC(N)=O)[C@@H](OC)/C=C\C=C(/C)C(=O)NC(=CC1=O)C2=O [Tanespimycin] (1000 nM) , if possible.
28.9

Entry Nc1nc(Cl)nc2c1ncn2[C@H]1C[C@H](O)[C@@H](CO)O1 [Cladribine] (100 nM) please
106

Now consider C=CCNC1=C2C[C@@H](C)C[C@H](OC)[C@H](O)[C@@H](C)/C=C(\C)[C@H](OC(N)=O)[C@@H](OC)/C=C\C=C(/C)C(=O)NC(=CC1=O)C2=O [Tanespimycin] (10 nM) and answer again.
92.8

---

- System: CAL-148
- Experiment description: normalised response (% of control), CellTiter-Glo; higher = more viable cells (100 = DMSO, 0 = benzethonium chloride kill control)
- Protocol conditions: incubation time: 72 h
Short version: normalised response at least 90% is Satisfied, less is Not satisfied.

Record excerpt, results attached:
- Compound: "CN1CCC(COc2cnc(-c3cccc(Cn4nc(-c5cccc(C#N)c5)ccc4=O)c3)nc2)CC1 (0.1 nM)"
  Classification: "Satisfied"
- Compound: "Clc1ccc(C(c2ccccc2Cl)C(Cl)Cl)cc1 (stereo not drawn) [Mitotane] (1 nM)"
  Classification: "Satisfied"
- Compound: "S=c1[nH]cnc2nc[nH]c12 [Mercaptopurine] (1000 nM)"
  Classification: "Not satisfied"
- Compound: "OC[C@H]1O[C@@H](n2cnc3c2N=CNC[C@H]3O)C[C@@H]1O [Pentostatin] (1000 nM)"
  Classification: "Satisfied"
- Compound: "COc1cccc2cc(-c3nc([C@H]4CC[C@H](C(=O)O)CC4)n4ncnc(N)c34)[nH]c12 [OSI-027] (1000 nM)"
  Classification: "Satisfied"

Kindly review the next compound as well.
Kindly determine if normalised response recorded for CCN1CCN(c2ccc(Nc3cc(N(C)C(=O)Nc4c(Cl)c(OC)cc(OC)c4Cl)ncn3)cc2)CC1 [NVP-BGJ398] (0.1 nM) is above or exactly 90%.
Satisfied

---

- Tested on: HCC1937
- Experiment description: normalised response (% of control), CellTox Green; higher = less cell death (100 = DMSO, 0 = benzethonium chloride kill control)
- Protocol conditions: incubation time: 72 h
Note to self: values exactly at 90% are true. So normalised response at or above 90% is true, below is false.

Worked set:
- Molecule: "S=c1[nH]cnc2nc[nH]c12 [Mercaptopurine] (1000 nM)"
  Classification: "false"
- Molecule: "C=CC[C@@H]1/C=C(\\C)C[C@H](C)C[C@H](OC)[C@H]2O[C@@](O)(C(=O)C(=O)N3CCCC[C@H]3C(=O)O[C@H](/C(C)=C/[C@@H]3CC[C@@H](O)[C@H](OC)C3)[C@H](C)[C@@H](O)CC1=O)[C@H](C)C[C@@H]2OC [Tacrolimus] (1000 nM)"
  Classification: "true"
- Molecule: "OC[C@H]1O[C@@H](n2cnc3c2N=CNC[C@H]3O)C[C@@H]1O [Pentostatin] (1000 nM)"
  Classification: "true"
- Molecule: "C=CCNC1=C2C[C@@H](C)C[C@H](OC)[C@H](O)[C@@H](C)/C=C(\\C)[C@H](OC(N)=O)[C@@H](OC)/C=C\\C=C(/C)C(=O)NC(=CC1=O)C2=O [Tanespimycin] (1000 nM)"
  Classification: "true"

Please check the record O=C(c1ccc(C(=O)N2CCC(N3CCCC3)CC2)c(Nc2ccccc2)c1)N1CCC(N2CCCC2)CC1 [UNC1215] (300 nM) and state if its normalised response is at or above 90%.
false

For O=C(c1ccc(C(=O)N2CCC(N3CCCC3)CC2)c(Nc2ccccc2)c1)N1CCC(N2CCCC2)CC1 [UNC1215] (30000 nM) then?
true

Try this molecule next: CN1CCC(COc2cnc(-c3cccc(Cn4nc(-c5cccc(C#N)c5)ccc4=O)c3)nc2)CC1 (100 nM)
true

And then Clc1ccc(C(c2ccccc2Cl)C(Cl)Cl)cc1 (centres undefined) [Mitotane] (100 nM) , what is it?
true

Request: CO[C@H]1C[C@@H]2CC[C@@H](C)[C@@](O)(O2)C(=O)C(=O)N2CCCC[C@H]2C(=O)O[C@H]([C@H](C)C[C@@H]2CC[C@@H](OC(=O)C(C)(CO)CO)[C@H](OC)C2)CC(=O)[C@H](C)/C=C(\C)[C@@H](O)[C@@H](OC)C(=O)[C@H](C)C[C@H](C)/C=C/C=C/C=C/1C [Temsirolimus] (1 nM)
true

Try the molecule CS(=O)(=O)c1ccc(C(=O)Nc2ccc(Cl)c(-c3ccccn3)c2)c(Cl)c1 [Vismodegib] (100 nM)
true

---

- System: MDA-MB-468
- Experiment description: normalised viability (% of control), CellTiter-Blue; higher = more viable cells (about 100 = DMSO control)
- Protocol conditions: 1000 nM; incubation time: 72 h
# normalised viability listing for each entry below
Reply with just the number (in %).

Solved entries:
- Cpd smiles: "Nc1ccn([C@@H]2O[C@H](CO)[C@@H](O)[C@@H]2O)c(=O)n1"
  Output unit: "%"
  normalised viability: 68.4
- Cpd smiles: "CN1CCC(COc2cnc(-c3cccc(Cn4nc(-c5cccc(C#N)c5)ccc4=O)c3)nc2)CC1"
  Output unit: "%"
  normalised viability: 92.9
- Cpd smiles: "CS(=O)(=O)c1ccc(C(=O)Nc2ccc(Cl)c(-c3ccccn3)c2)c(Cl)c1"
  Output unit: "%"
  normalised viability: 103

# next compound below
Item `CN(C)C/C=C/C(=O)Nc1cc2c(Nc3ccc(F)c(Cl)c3)ncnc2cc1O[C@H]1CCOC1` has what recorded normalised viability?
56.9

---

- Tested on: MCF-10A
- Experiment description: normalised response (% of control), CellTox Green; higher = less cell death (100 = DMSO, 0 = benzethonium chloride kill control)
- Protocol conditions: incubation time: 72 h
Reported metric: normalised response (%)
Just the number in %, nothing appended.

Here is how some compounds turned out for normalised response.
- Compound: "COc1cccc2cc(-c3nc([C@H]4CC[C@H](C(=O)O)CC4)n4ncnc(N)c34)[nH]c12 [OSI-027] (100 nM)"
  Output unit: "%"
  normalised response: 98.3
- Compound: "C=CC[C@@H]1/C=C(\\C)C[C@H](C)C[C@H](OC)[C@H]2O[C@@](O)(C(=O)C(=O)N3CCCC[C@H]3C(=O)O[C@H](/C(C)=C/[C@@H]3CC[C@@H](O)[C@H](OC)C3)[C@H](C)[C@@H](O)CC1=O)[C@H](C)C[C@@H]2OC [Tacrolimus] (10000 nM)"
  Output unit: "%"
  normalised response: 70.6
- Compound: "COc1cccc2cc(-c3nc([C@H]4CC[C@H](C(=O)O)CC4)n4ncnc(N)c34)[nH]c12 [OSI-027] (1000 nM)"
  Output unit: "%"
  normalised response: 106

Which normalised response value belongs to COc1cc(Nc2ncc3c(n2)-c2ccc(Cl)cc2C(c2c(F)cccc2OC)=NC3)ccc1C(=O)O [Alisertib] (10000 nM) ?
-35.5
